Species on record: Rattus norvegicus
Test: The effective concentration using [35S]GTP-gamma-S binding assay in rat membranes
Format: functional
Answer each item with its documented EC50.
Just the number in µM, nothing appended.

-- ask Item under review: CNNC(=O)c1nn(-c2ccc(Cl)cc2Cl)c(-c2ccc(Cl)cc2)c1C . Reported EC50?
-- reply 12000

-- ask Here is the next compound: Cc1c(C(=O)N[C@H](C)CO)nn(-c2ccc(Cl)cc2Cl)c1-c1ccc(Cl)cc1
-- reply 292

-- ask What do you have for CCNC(=O)c1nn(-c2ccc(Cl)cc2Cl)c(-c2ccc(Cl)cc2)c1C ?
-- reply 30.3

-- ask Also Cc1c(C(=O)N[C@@H](C)CO)nn(-c2ccc(Cl)cc2Cl)c1-c1ccc(Cl)cc1 , if possible.
-- reply 294

-- ask What do you get for CCNNC(=O)c1nn(-c2ccc(Cl)cc2Cl)c(-c2ccc(Cl)cc2)c1C ?
-- reply 495

====

Target: Cannabinoid receptor 1 (Rattus norvegicus, UniProt P20272)
Sequence (P20272 whole entry): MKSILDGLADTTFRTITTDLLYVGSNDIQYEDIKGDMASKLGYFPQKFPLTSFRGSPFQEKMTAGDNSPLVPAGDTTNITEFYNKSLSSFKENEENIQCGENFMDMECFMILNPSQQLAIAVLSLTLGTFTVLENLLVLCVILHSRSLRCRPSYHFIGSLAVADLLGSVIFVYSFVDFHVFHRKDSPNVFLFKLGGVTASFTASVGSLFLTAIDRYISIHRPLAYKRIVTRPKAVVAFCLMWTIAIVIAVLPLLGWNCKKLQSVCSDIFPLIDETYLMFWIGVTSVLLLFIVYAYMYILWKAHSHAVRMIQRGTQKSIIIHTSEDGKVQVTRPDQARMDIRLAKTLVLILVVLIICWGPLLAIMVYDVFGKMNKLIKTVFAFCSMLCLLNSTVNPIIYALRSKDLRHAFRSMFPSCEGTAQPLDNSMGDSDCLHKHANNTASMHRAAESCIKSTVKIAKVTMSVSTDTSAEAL
Assay: Binding affinity in a competition assay by displacement of [3H]- SR-141716 from Cannabinoid receptor 1 in rat whole brain membrane preparation
Format: cell membranes
I'd appreciate it if you could supply Ki values for the items below.
Answer with a number only, understood to be in µM.

-- ask Find the recorded Ki belonging to Cc1c(C(=O)N[C@H](C)CO)nn(-c2ccc(Cl)cc2Cl)c1-c1ccc(Cl)cc1 and report it.
-- reply 0.0998

-- ask Try the compound Cc1c(C(=O)N[C@@H](C)CO)nn(-c2ccc(Cl)cc2Cl)c1-c1ccc(Cl)cc1
-- reply 0.123

====

Species on record: Rattus norvegicus
Assay: The effective concentration using [35S]GTP-gamma-S binding assay in rat membranes
Format: functional
Under this convention, label 1 denotes EC50 strictly below 200 µM and label 0 denotes EC50 at or above 200 µM.

-- ask Say whether its EC50 is strictly beneath 200 µM. Entry: Cc1c(C(=O)NCCO)nn(-c2ccc(Cl)cc2Cl)c1-c1ccc(Cl)cc1
-- reply label 0

-- ask Lookup CCCCCCNC(=O)c1nn(-c2ccc(Cl)cc2Cl)c(-c2ccc(Cl)cc2)c1C
-- reply label 1

-- ask Same question for Cc1c(C(=O)NC2CCCCC2)nn(-c2ccc(Cl)cc2Cl)c1-c1ccc(Cl)cc1 please.
-- reply label 1

-- ask Please answer likewise for Cc1c(C(=O)NCCCCO)nn(-c2ccc(Cl)cc2Cl)c1-c1ccc(Cl)cc1
-- reply label 0

-- ask What would you report for CCCNC(=O)c1nn(-c2ccc(Cl)cc2Cl)c(-c2ccc(Cl)cc2)c1C ?
-- reply label 1

-- ask Then this compound: Cc1c(C(=O)NN)nn(-c2ccc(Cl)cc2Cl)c1-c1ccc(Cl)cc1
-- reply label 0

-- ask # iterate: CCCCNC(=O)c1nn(-c2ccc(Cl)cc2Cl)c(-c2ccc(Cl)cc2)c1C
-- reply label 1

-- ask Then CCCCCNC(=O)c1nn(-c2ccc(Cl)cc2Cl)c(-c2ccc(Cl)cc2)c1C ?
-- reply label 1

-- ask Next compound: Cc1c(C(=O)NC(C)C)nn(-c2ccc(Cl)cc2Cl)c1-c1ccc(Cl)cc1
-- reply label 1

-- ask Please do the same for Cc1c(C(=O)NCCCO)nn(-c2ccc(Cl)cc2Cl)c1-c1ccc(Cl)cc1 as well.
-- reply label 0

-- ask Next entry: Cc1c(C(=O)NN2CCOCC2)nn(-c2ccc(Cl)cc2Cl)c1-c1ccc(Cl)cc1
-- reply label 1
